// data source = patent US7985760B2

study.system: non-lysosomal-β-glucocerebrosidase (Homo sapiens)
Construct: whole cell extracts of MCF7(a human breast carcinoma cell line) was used as the source of the enzyme; endogenous in cells
Sequence (Q9HCG7 1-927): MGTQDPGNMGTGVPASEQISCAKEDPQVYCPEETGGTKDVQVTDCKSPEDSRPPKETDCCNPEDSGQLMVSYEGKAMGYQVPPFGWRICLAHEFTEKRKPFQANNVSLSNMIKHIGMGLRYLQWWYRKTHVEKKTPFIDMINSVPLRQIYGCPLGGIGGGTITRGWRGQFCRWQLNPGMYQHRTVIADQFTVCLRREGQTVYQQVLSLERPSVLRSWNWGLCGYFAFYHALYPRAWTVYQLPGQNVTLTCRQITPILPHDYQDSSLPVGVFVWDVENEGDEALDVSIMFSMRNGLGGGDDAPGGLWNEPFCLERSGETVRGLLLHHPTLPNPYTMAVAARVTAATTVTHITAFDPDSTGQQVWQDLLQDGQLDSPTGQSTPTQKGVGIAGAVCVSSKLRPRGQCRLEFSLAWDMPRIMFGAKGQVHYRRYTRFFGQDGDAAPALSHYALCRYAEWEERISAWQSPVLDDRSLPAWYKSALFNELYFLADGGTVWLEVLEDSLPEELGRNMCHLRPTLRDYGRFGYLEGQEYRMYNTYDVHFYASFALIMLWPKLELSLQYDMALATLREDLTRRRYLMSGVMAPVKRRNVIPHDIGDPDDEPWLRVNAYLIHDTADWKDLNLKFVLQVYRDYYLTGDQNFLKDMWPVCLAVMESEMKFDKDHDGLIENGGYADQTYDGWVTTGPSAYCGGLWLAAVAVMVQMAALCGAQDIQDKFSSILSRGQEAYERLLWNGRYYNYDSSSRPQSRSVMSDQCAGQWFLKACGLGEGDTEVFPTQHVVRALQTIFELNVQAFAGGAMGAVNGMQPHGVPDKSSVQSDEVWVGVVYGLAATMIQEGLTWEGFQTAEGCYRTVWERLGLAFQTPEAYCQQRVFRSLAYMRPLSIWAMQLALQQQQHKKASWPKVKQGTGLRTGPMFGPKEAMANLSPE
assay.protocol: Inhibition of non-lysosomal-β-glucocerebrosidase
reported.conditions: whole cell extracts of MCF7 as enzyme source; 4-MU β-glucoside substrate; pH 5.8
pIC50: −log10 of the molar value.
reported.property: pIC50

Use these answered entries as a reference point.
OC[C@H]1[C@@H](O)[C@H](O)[C@@H](O)CN1Cc1ccc(Oc2ccccc2)cc1	8.40
CC(NC(=O)c1ccc(CN2C[C@H](O)[C@@H](O)[C@H](O)[C@@H]2CO)cc1)c1ccccc1 (stereo partly shown)	7.08

I. O=S(=O)(Nc1ccc(CN2C[C@H](O)[C@@H](O)[C@H](O)[C@@H]2CO)cc1)c1ccccc1
II. OC[C@H]1[C@@H](O)[C@H](O)[C@@H](O)CN1Cc1ccc(/C=C/c2ccccc2)cc1
Q) For the pair I and II , which member has the lower pIC50 number? Pick one; state its label.
A) I
(I: 6.04, II: 8.70)

I. COc1cc(OCc2ccccc2)ccc1CN1C[C@H](O)[C@@H](O)[C@H](O)[C@@H]1CO
II. OC[C@H]1[C@@H](O)[C@H](O)[C@@H](O)CN1Cc1ccc(OCc2ccccc2)cc1
III. C[C@@H](NC(=O)c1ccc(CN2C[C@H](O)[C@@H](O)[C@H](O)[C@@H]2CO)cc1)c1ccc(F)cc1
Q) Place the items in sequence of falling pIC50. Record the ranking as a list of labels in the requested order.
A) II, III, I

----------
study.system: non-lysosomal-β-glucocerebrosidase (Homo sapiens, UniProt Q9HCG7)
Construct: whole cell extracts of MCF7(a human breast carcinoma cell line) was used as the source of the enzyme; endogenous in cells; host or cells: MCF7 whole cell extract
assay.protocol: Inhibition of non-lysosomal-β-glucocerebrosidase
Type: biochemical
reported.conditions: whole cell extracts of MCF7 as enzyme source; 4-MU β-glucoside substrate; pH 5.8
pIC50: −log10 of the molar value.
reported.property: pIC50

Use these answered entries as a reference point.
O=C(NCc1ccc(F)cc1)c1ccc(CN2C[C@H](O)[C@@H](O)[C@H](O)[C@@H]2CO)cc1 [Example 6]	7.16
CCN(CC)c1ccc(CN2C[C@H](O)[C@@H](O)[C@H](O)[C@@H]2CO)c(F)c1C#N [Example 18]	6.92

a. OC[C@H]1[C@@H](O)[C@H](O)[C@@H](O)CN1Cc1ccc2c(c1)OCCO2 [Example 20]
b. OC[C@H]1[C@@H](O)[C@H](O)[C@@H](O)CN1Cc1ccc(OCc2ccccc2)c(Cl)c1 [Example 10]
c. CN(C)c1ccc(CN2C[C@H](O)[C@@H](O)[C@H](O)[C@@H]2CO)c(F)c1C#N [Example 3]
d. O=C(c1ccc(CN2C[C@H](O)[C@@H](O)[C@H](O)[C@@H]2CO)cc1)N1CCCc2ccccc21 [Example 14]
Q) Task for the reader: rank each entry by its pIC50, from the minimum upward. Record the ranking as a list of labels in the requested order.
A) c, a, d, b

----------
study.system: human recombinant GCS expressed in insect cells (Homo sapiens, UniProt Q16739)
Construct: made in house; host or cells: insect cells
Sequence (Q16739 whole entry): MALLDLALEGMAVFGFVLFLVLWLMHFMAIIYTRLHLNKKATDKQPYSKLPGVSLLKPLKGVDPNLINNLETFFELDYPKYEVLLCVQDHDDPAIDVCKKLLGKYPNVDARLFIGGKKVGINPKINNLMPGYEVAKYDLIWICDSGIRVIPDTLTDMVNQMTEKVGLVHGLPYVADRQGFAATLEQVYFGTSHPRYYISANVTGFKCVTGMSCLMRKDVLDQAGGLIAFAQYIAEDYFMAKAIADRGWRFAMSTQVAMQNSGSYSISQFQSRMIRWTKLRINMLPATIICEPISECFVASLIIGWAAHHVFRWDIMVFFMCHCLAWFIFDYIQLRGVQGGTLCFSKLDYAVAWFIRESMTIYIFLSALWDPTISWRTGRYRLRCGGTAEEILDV
assay.protocol: Inhibition of GCS
Format: biochemical
reported.property: IC50 (µM)
Number only, in µM; omit the unit.

Briefly, IC50 measured for O=S(=O)(Nc1ccc(CN2C[C@H](O)[C@@H](O)[C@H](O)[C@@H]2CO)cc1)c1ccccc1 : 0.91

----------
study.system: human recombinant GCS expressed in insect cells (Homo sapiens)
Construct: made in house; host or cells: insect cells
assay.protocol: Inhibition of GCS
Type: biochemical
reported.conditions: human recombinant GCS expressed in insect cells; read-out: Inhibition of GCS (IC50)
reported.property: IC50 (nM)

Use these answered entries as a reference point.
CC(NC(=O)c1ccc(CN2C[C@H](O)[C@@H](O)[C@H](O)[C@@H]2CO)cc1)c1ccccc1 (some centres unmarked)	280
OC[C@H]1[C@@H](O)[C@H](O)[C@@H](O)CN1Cc1ccc2c(c1)OCCO2	2500

1. O=C(c1ccc(CN2C[C@H](O)[C@@H](O)[C@H](O)[C@@H]2CO)cc1)N1CCCc2ccccc21
2. COc1cc(OCc2ccccc2)ccc1CN1C[C@H](O)[C@@H](O)[C@H](O)[C@@H]1CO
3. OC[C@H]1[C@@H](O)[C@H](O)[C@@H](O)CN1Cc1ccc(OCc2ccccc2)cc1
Q) Place the items in sequence of falling IC50. Record the ranking as a list of labels in the requested order.
A) 2, 1, 3

----------
study.system: human recombinant GCS expressed in insect cells (Homo sapiens)
Construct: made in house; host or cells: insect cells
assay.protocol: Inhibition of GCS
Format: biochemical
reported.conditions: human recombinant GCS expressed in insect cells; read-out: Inhibition of GCS (IC50)
pIC50: −log10 of the molar value.
reported.property: pIC50

Use these answered entries as a reference point.
C[C@@H](NC(=O)c1ccc(CN2C[C@H](O)[C@@H](O)[C@H](O)[C@@H]2CO)cc1)c1ccc(F)cc1 [Example 8]	6.31
O=C(NCc1ccc(F)cc1)c1ccc(CN2C[C@H](O)[C@@H](O)[C@H](O)[C@@H]2CO)cc1 [Example 6]	6.17

A. OC[C@H]1[C@@H](O)[C@H](O)[C@@H](O)CN1Cc1ccc(/C=C/c2ccccc2)cc1 [Example 13]
B. CCN(CC)c1ccc(CN2C[C@H](O)[C@@H](O)[C@H](O)[C@@H]2CO)c(F)c1C#N [Example 18]
Q) Pick one: A or B . Which has the bigger pIC50 number? Pick one; state its label.
A) A
(A: 6.54, B: 6.26)

P. OC[C@H]1[C@@H](O)[C@H](O)[C@@H](O)CN1Cc1ccc(OCc2ccccc2)c(Cl)c1 [Example 10]
Q. CN(C)c1ccc(CN2C[C@H](O)[C@@H](O)[C@H](O)[C@@H]2CO)c(F)c1C#N [Example 3]
Q) For the pair P and Q , which member has the lower pIC50 number? Pick one; state its label.
A) Q

----------
study.system: human GCS (Homo sapiens, UniProt Q16739)
Construct: Human mammary epithelial cells (MCF-7) were cultured for 5-7 days, with varying concentrations of a compound of the invention; endogenous in cells; host or cells: MCF-7
Sequence (Q16739 whole entry): as above
assay.protocol: Cell-based IC50 for GCS inhibition by measuring glucosylceramide (GlcCer) depletion
reported.conditions: MCF-7 cells cultured for 5-7 days; GlcCer quantified by HPTLC; read-out: Inhibition of GCS Cellular-based (IC50 μM)
reported.property: IC50

# IC50 measured on human GCS (Homo sapiens, UniProt Q16739) for item OC[C@H]1[C@@H](O)[C@H](O)[C@@H](O)CN1Cc1ccc(OCc2ccccc2)cc1 = < 0.01 µM
